These entries and their values trace back to the RNAGym collection of RNA variant scans (doi:10.1126/science.aae0568).

Each item that follows carries a reported yeast fitness.
B1: tRNA (parent)
chain: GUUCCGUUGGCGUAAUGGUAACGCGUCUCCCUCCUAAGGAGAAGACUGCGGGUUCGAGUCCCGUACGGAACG

- Variants of: B1
- experimental.details: yeast fitness relative to wild type (ratio to wild type); higher = fitter; tRNA-Arg(CCU), competitive growth, 37 C, YPD
This sample holds only a part of the variants without activity.
readout: yeast fitness

U19G U28C A42C
0.669
G6U G68C
0.794
C33U A42C G68U
0.538
C29U G67C
0.848
G25A C49A
0.691
U35A A43C C49A
0.566
C5U C27A A42U C49G C60A
0.817
G48A U54A
0.692
C24G C34U U35A A65U
0.578
G6A A65C
0.945
U53A G68C
0.6
